system: MS2 coat protein; assay: apparent KD of MS2 coat protein; designed switch direction (-1 OFF switch, 1 ON switch): 1; higher = weaker reporter binding; conditions: Eterna round: R95; input ligand: FMN 200 uM
So basically every entry gets a class from its apparent KD of MS2 coat protein, ranges being lower band = under 20 nM, central band = from 20 nM up to 30 nM, upper band = 30 nM and over

AAAGAACAUGAGGAUCACCCAUGUGGAAGAGGCACAGGAUAUCACCUCGCACGUGCGAGGUGAGAAGGGUGAUGGU [Zalecema] (puzzle: Same State 1): upper band
AACAAGUUUUUGCUCGCUUAUAAGCAUGUACAUGAGGAUCACCCAUGUCAUGUACAAAGUCCAGCCUGAGCUGGACA [Reversing mir to lane 1] (puzzle: Sensor for hsa-mir-208a): central band
AAACUACAUGAGGAUCACCCAUGUGAAAACCGCAUAGGAUAUCCGCAGCAAUAAACUGACGGAGAAGGGUGACCGG [Sobearcege] (puzzle: Same State 1): upper band

Ask | Assign a category based on measured apparent KD of MS2 coat protein for AUUUAACAAGCUUUUUGCUCGUCUUAUAAACAUGAGGAUCACCCAUGUAAUAGCGUGAGAGUAAUUUAAUAAAUAAU [JMF 84] (puzzle: Sensor for hsa-mir-208a) and give only the class name.
Reply | lower band

Ask | Query ACAAGCUUUUUAGGAGAGAAAGGUGGGAUACAUGAGGAUCACCCAUGUAUGGUAGUUAAUAGUGGACCUCGUCUUAU [JR_SHM208A_Sub082] (puzzle: Sensor for hsa-mir-208a) next
Reply | upper band

Ask | Input AUAAGGCAAGCUUUUUUCUCGUAGUGUAAACAUGAGGAUCACCCAUGUGCCCGCUCUGGAUCUUUGGAUCGCAGAAA [Lavegeaus] (puzzle: Sensor for hsa-mir-208a)
Reply | central band
